Could you please report measured IC50 for the items listed next?
target: Amine oxidase [flavin-containing] A (Homo sapiens, UniProt P21397); test: Inhibition Assay
Sequence (P21397 whole entry): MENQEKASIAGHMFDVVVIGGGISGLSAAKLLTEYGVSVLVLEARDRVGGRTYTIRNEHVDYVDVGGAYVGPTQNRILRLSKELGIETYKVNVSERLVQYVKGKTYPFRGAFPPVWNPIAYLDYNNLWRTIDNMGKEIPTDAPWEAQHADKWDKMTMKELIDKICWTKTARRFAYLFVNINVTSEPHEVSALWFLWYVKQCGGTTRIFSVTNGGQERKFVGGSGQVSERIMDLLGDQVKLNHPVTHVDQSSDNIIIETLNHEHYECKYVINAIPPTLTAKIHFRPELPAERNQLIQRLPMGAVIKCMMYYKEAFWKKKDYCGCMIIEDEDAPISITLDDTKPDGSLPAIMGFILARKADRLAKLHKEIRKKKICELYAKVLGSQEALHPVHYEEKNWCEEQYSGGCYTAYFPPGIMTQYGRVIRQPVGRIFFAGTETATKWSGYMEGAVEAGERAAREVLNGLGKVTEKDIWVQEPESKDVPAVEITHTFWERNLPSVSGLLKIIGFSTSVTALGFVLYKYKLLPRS
Answers are plain numbers, in nM.

Some solved entries appear below for comparison.
>>> print(df.to_string())
                                   compound  readoutlabel  observedmeasurement
0  Clc1ccc(C2=NN(c3ccccc3)CC2)cc1 [4,5-Dihydro-(1H)-pyrazole derivative, 2c]          IC50                 9900
1  COc1ccc(C2CC(c3ccccc3O)=NN2C(C)=O)c(OC)c1 (stereo not given) [4,5-Dihydro-(1H)-pyrazole derivative, 1k]          IC50                  8.6
2  COc1ccc([C@@H]2CC(c3ccccc3)=NN2C(C)=O)cc1OC [4,5-Dihydro-(1H)-pyrazole derivative, 1m]          IC50                   10
3  CC(=O)N1N=C(c2ccccc2O)CC1c1ccc(Cl)cc1 (stereo not given) [4,5-Dihydro-(1H)-pyrazole derivative, 1g]          IC50                  8.8
4  CC(=O)N1CCC(c2ccc(O)cc2)=N1 [4,5-Dihydro-(1H)-pyrazole derivative, 3l]          IC50                   50

Need IC50 for each of these compounds.
1. COc1ccc(C2=NN(C(C)=O)CC2)cc1 [4,5-Dihydro-(1H)-pyrazole derivative, 3e]
2. COc1ccc(C2CC(c3ccc(O)cc3O)=NN2C(C)=O)c(OC)c1 (stereo not given) [4,5-Dihydro-(1H)-pyrazole derivative, 1l]

Response:
1: 200; 2: 100

Cited source for all entries: BindingDB's records for doi:10.1111/j.1747-0285.2006.00367.x
